Taken from ChEMBL document CHEMBL1144558.

Tested on: HL-60
Test: Growth inhibition of human HL60 cells at 4 uM after 72 hrs relative to control
Assay type: functional
Settings: HL-60, 72 h
Label Yes when inhibition at 4 µM is at or above 60%; otherwise label No.

Task: Check if inhibition at 4 µM >= 60% (inclusive). Item: CCCCCCCCCCNc1ccc(O)cc1
Result: Yes

Task: Assess whether reported inhibition at 4 µM for CCCCCCCCCC(=O)Nc1ccc(O)cc1 sits at 60% or higher.
Result: No

Task: Identify whether the reported inhibition at 4 µM of the following molecule is 60% or greater: CC1=C(/C=C/C(C)=C/C=C/C(C)=C/C(=O)Nc2ccc(O)cc2)C(C)(C)CCC1 [FENRETINIDE]
Result: No

Task: Answer whether inhibition at 4 µM of CCCCCCCCCCCCNc1ccc(O)cc1 is greater than or equal to 60%.
Result: Yes

Task: Is inhibition at 4 µM for CC1=C(/C=C/C(C)=C/C=C/C(C)=C/C(=O)O)C(C)(C)CCC1 at or above 60%?
Result: No

Task: Check if inhibition at 4 µM >= 60% (inclusive). Item: CCCCCCCCCCCC(=O)Nc1ccc(O)cc1
Result: No
